# Protocol details: Cell viability assay (EZ-Cytox), cytotoxicity
# Assay type: cell-based
# Test conditions: human, HepAD38 cells
Reported CC50 at 65 h values for the following molecules.

>  <Molecule>
COc1ncc(N(Cc2cc(C(F)(F)F)[nH]n2)C(=O)Nc2cncc(C(F)F)c2)cn1 [Example 174]

>  <CC50 at 65 h>
> 100 µM

$$$$
>  <Molecule>
CS(=O)(=O)Nc1ccc(N(Cc2n[nH]c3c2CCCO3)C(=O)Nc2ccc(F)c(Cl)c2)cn1 [Example 18]

>  <CC50 at 65 h>
> 100 µM

$$$$
>  <Molecule>
Cn1cc(N(Cc2n[nH]c3c2CCC3)C(=O)Nc2ccc(F)c(Cl)c2)ccc1=O [Example 65]

>  <CC50 at 65 h>
> 100 µM

$$$$
>  <Molecule>
COc1cc(N(Cc2cc(C(F)(F)F)[nH]n2)C(=O)Nc2ccc(F)c(C#N)c2)cnn1 [Example 163]

>  <CC50 at 65 h>
> 100 µM

$$$$
